Biological target: T1, CRBN, Q96SW2;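 further: pooled lentiviral library of zinc finger degron-EGFP fusions in mCherry-positive Jurkat cells, FACS-sorted after compound exposure, with degron abundance counted by next-generation sequencing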
T1 chain: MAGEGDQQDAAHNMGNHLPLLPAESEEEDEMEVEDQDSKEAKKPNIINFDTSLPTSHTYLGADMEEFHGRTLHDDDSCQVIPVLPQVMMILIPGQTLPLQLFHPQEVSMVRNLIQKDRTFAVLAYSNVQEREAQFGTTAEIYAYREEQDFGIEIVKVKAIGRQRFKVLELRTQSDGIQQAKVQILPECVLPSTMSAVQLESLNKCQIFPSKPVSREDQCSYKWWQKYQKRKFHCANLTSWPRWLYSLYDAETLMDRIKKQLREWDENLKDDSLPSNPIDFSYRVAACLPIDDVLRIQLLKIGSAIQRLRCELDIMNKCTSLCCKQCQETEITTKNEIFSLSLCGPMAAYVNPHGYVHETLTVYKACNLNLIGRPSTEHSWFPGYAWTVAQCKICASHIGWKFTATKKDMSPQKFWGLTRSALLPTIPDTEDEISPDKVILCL
Assay: log2 fold change of degron read counts, EGFP-low vs EGFP+ sorted cells (limma voom), compound-induced degradation; higher = more compound-induced degradation of the degron-EGFP fusion; degrons are variants of IKZF1/3 zinc finger 2; compound dose not given here
Conditions: Jurkat; 18 h; compound: compound 22 (5-morpholino-thalidomide)
The full ranking holds about 8,300 sequences; the median of “log2 fold change of degron read counts, EGFP-low vs EGFP+ sorted cells (limma voom), compound-induced degradation” is about -1.1, and the highest 2% start at about 3.2. The sample as a whole holds a higher share of the highest values than the screen did.
Given measured log2 fold change of degron read counts, output met if it is greater than or equal to -0.4 and not met if not.

Consider the following illustrative entries.
- residues: "FNCPICGANFTQKGNLLRHIKL [46F_47N_49P_50I_52G_53A_54N_55F_67L_, Q9UKT9]"
  class label: "met"
- residues: "LKCNQCGFCCTQKGNLLRHIKL [46L_47K_49N_50Q_52G_53F_54C_55C_67L_, Q9UKT9]"
  class label: "not met"
- residues: "FLCPICGANFTQKGNLLRHIKL [46F_47L_49P_50I_52G_53A_54N_55F_67L_, Q9UKT9]"
  class label: "met"

IN: Determine whether measured log2 fold change of degron read counts meets or exceeds -0.4 for FMCPICGANFTQKGNLLRHIKL [46F_47M_49P_50I_52G_53A_54N_55F_67L_, Q9UKT9]
OUT: met

IN: Determine whether measured log2 fold change of degron read counts meets or exceeds -0.4 for FFCPICGANFTQKGNLLRHIKL [46F_47F_49P_50I_52G_53A_54N_55F_67L_, Q9UKT9]
OUT: met

IN: Determine whether measured log2 fold change of degron read counts meets or exceeds -0.4 for FRCPICGANFTQKGNLLRHIKL [46F_47R_49P_50I_52G_53A_54N_55F_67L_, Q9UKT9]
OUT: not met

IN: Determine whether measured log2 fold change of degron read counts meets or exceeds -0.4 for FECDICGARFTQKGNLLRHIKL [46F_47E_49D_50I_52G_53A_54R_55F_67L_, Q9UKT9]
OUT: not met
